Each recorded value in this set is attributed to ChEMBL document CHEMBL1153804.

assay: Clearance in dog at 1 mg/kg, iv; type: ADME, organism-based, Canis lupus familiaris; set-up: dose 1 mg/kg, route intravenous; settings: in vivo
Metric name: clearance (mL/min/kg)
Quick reminder: number only, in mL/min/kg, skip the unit.

For record CCS(=O)(=O)CCN(C(=O)Cc1ccc(F)c(C(F)(F)F)c1)[C@H](C)c1nc2ncccc2c(=O)n1-c1ccc(OCC(F)(F)F)cc1 the listed clearance is 7.5

###

test: Oral bioavailability in mouse at 2 mg/kg; format: ADME, organism-based; details: in vivo
Metric name: bioavailability (%)
Quick reminder: number only, in %, skip the unit.

For record CCS(=O)(=O)CCN(C(=O)Cc1ccc(F)c(C(F)(F)F)c1)[C@H](C)c1nc2ncccc2c(=O)n1-c1ccc(OCC(F)(F)F)cc1 the listed bioavailability is 84

###

assay: Clearance in mouse at 0.5 mg/kg, iv; format: ADME, organism-based; design: dose 0.5 mg/kg, route intravenous; settings: in vivo
Metric name: clearance (mL/min/kg)
Quick reminder: number only, in mL/min/kg, skip the unit.

For record CCS(=O)(=O)CCN(C(=O)Cc1ccc(F)c(C(F)(F)F)c1)[C@H](C)c1nc2ncccc2c(=O)n1-c1ccc(OCC(F)(F)F)cc1 the listed clearance is 13

###

experiment: Oral bioavailability in cynomolgus monkey at 5 mg/kg; type: ADME, organism-based, Macaca fascicularis; conditions: in vivo
Metric name: bioavailability (%)
Quick reminder: number only, in %, skip the unit.

For record CCS(=O)(=O)CCN(C(=O)Cc1ccc(F)c(C(F)(F)F)c1)[C@H](C)c1nc2ncccc2c(=O)n1-c1ccc(OCC(F)(F)F)cc1 the listed bioavailability is 14
